Data origin, for the record: patent US20090192204A1

system: SH-SY5Y cells; assay: Cell survival by LDH release in SH-SY5Y cells; assay type: cell-based; details: 100 μM, 18 hours treatment
Output yes for records whose % of cell viability is lower than 90%, no for records at or above 90%.

Sample answers from the record:
O=C(Nc1ncc([N+](=O)[O-])s1)c1n[nH]c2ccccc12 = no
O=C(CCCc1c[nH]c2ccccc12)Nc1ncc([N+](=O)[O-])s1 = no
COc1ccc2[nH]cc(CC(=O)Nc3ncc([N+](=O)[O-])s3)c2c1 = no

As a next step, examine the compound that follows.
**Query** hey, is % of cell viability for `Cn1cc(CC(=O)Nc2ncc([N+](=O)[O-])s2)c2ccccc21` lower than 90% or not?
**Result** yes
